Test: soluble on expression in E. coli; label from the status in PepcDB or PDB records
MEASURE NAME: soluble on expression in E. coli

Please review the entries below; each comes with its answer.
>  <ORDERED RESIDUES>
GEEQPQQISVASGTPVSADQTPATPQEQPRAPWWDASPGVQRLITLKDPQVVCEAASAGLLKTLRFVKYLPCFQILPLDQQLVLVRSCWAPLLMLELAQDHLHFEMMEIPETNTTQEMLTTRRQETEGPEPAEPQATEQPQMVSAEAGHLLPAAAVQAIKSFFFKCWSLNIDTKEYAYLKGTVLFNPDLPGLQCVKYIEGLQWRTQQILTEHIRMMQREYQIRSAELNSALFLLRFINSDVVTELFFRPIIGAVSMDDMMLEMLCAKL

>  <MEASURE NAME>
soluble on expression in E. coli

>  <MEASURED VALUE>
soluble

$$$$
>  <ORDERED RESIDUES>
MADKIKVSLLGSTGMVGQKMVKMLAKHPYLELVKVSASPSKIGKKYKDAVKWIEQGDIPEEVQDLPIVSTNYEDHKDVDVVLSALPNELAESIELELVKNGKIVVSNASPFRMDPDVPLINPEINWEHLELLKFQKERKGWKGILVKNPNCTAAIMSMPIKPLIEIATKSKIIITTLQAVSGAGYNGISFMAIEGNIIPYIKGEEDKIAKELTKLNGKLENNQIIPANLDSTVTSIRVPTRVGHMGVINIVTNERINIEEIKKTLKNFKSLPQQKNLPTAPKQPIIVRDEEDRPQPIIDVNAESGMAVTVGRIRHENNVLRLVVLGDNLVRGAAGITILTVEVMKELGYI

>  <MEASURE NAME>
soluble on expression in E. coli

>  <MEASURED VALUE>
soluble

$$$$
>  <ORDERED RESIDUES>
MEGQQVILHLPLSQKGPFWTWEPSAPRTLLQVLQDPALKDLVLTCPTLPWHSLILRPQYEIQAIMHMRRTIVKIPSTLEVDVEDVTASSRHVHFIKPLLLSEVLAWEGPFPLSMEILEVPEGRPIFLSPWVGSLQKGQRLCVYGLASPPWRVLASSKGRKVPRHFLVSGGYQGKLRRRPREFPTAYDLLGAFQPGRPLRVVATKDCEGEREENPEFTSLAVGDRLEVLGPGQAHGAQGSDVDVLVCQRLSDQAGEDEEEECKEEAETQSGSCCPSTSLAVSWRRLEHHHHHH

>  <MEASURE NAME>
soluble on expression in E. coli

>  <MEASURED VALUE>
not soluble

$$$$
>  <ORDERED RESIDUES>
ASNIHRIQQIVEAAERYNRKVAVSGRSMENIVAVAIELGYLKVKEGVLIGIDAINRYADNKIVIITTGSQGEPMSALTRMAAQEHKKVKIQEGDMVVISANPIPGNEKLVSRVINQLFKKGAEVIYEALADVHVSGHACQEELKLMHTLIKPRFFIPVHGEYRHLKQHKELATNLGMPKANVVIPEIGGVIELTRSSIKKTDTVVAGKVFVDGLGVGDVGNIVLRDRKHLSQDGIVTVVVTIEKVSGTVIAGPDIISRGFVYVRESEDLMEESKEIVKTALLECEEKHITEWATIKSNIKDVLRIFLYERTKRKPMILPIIME

>  <MEASURE NAME>
soluble on expression in E. coli

>  <MEASURED VALUE>
not soluble

$$$$

Fill in the blank: the reported soluble on expression in E. coli of "MSLLKMYADKRGLKDIKSNMVMREFEEVFEKFKDWTEKIKQKYPNPDEILNLEKEEKWDFSDLFGEFLGDYRTVKSYHEFDKDNPYLPSDEFNKYFAAFSQIQEEIRKEKAEKKALEVQEEDLSNEVRKEPQIFSWEYGEGIQANLDYIFHLIKDLYNCDNEQDRQKVLDKIKTAIRTNPEIQVNEDILNEFIEDLGKSFEKEKLEEVWKTEGKLRECLKDFCKKKEESNKKKIINDFLVKGVFLVEWVADKQLNTAKKKGEYSPSWSDTEKLIWKEKSTNLPTMTEKDEDGNFKWRKLITDISEAFKNEGHHHHHH" is ____.
soluble

What do we get for "MGGIARLYGDSALAHFSQAHVCVVGVGGVGSWAVEALARTGIGRLTLIDLDNVAESNVNRQLHALTGDFGKAKVTALRERITQINPQCEVFEIEDFVTEDNLPEYFGKGFDFVIDAIDQVRVKAAMAAYFVERKQPFVLSGGAGGQKNPALIQTADLSRVTHDPLLANLRYTLRKRYGFSRDTKANMRVPCVYSTENIVPPQSREACSADAAPQGLSCAGYGASMLVTASFGLYCAQAAVEHIADKKLEHHHHHH" ?
not soluble

What do we get for "MLRTQAARLICNSRVITAKRTFALATRAAAYSRPAARFVKPMITTRGLKQINFGGTVETVYERADWPREKLLDYFKNDTFALIGYGSQGYGQGLNLRDNGLNVIIGVRKDGASWKAAIEDGWVPGKNLFTVEDAIKRGSYVMNLLSDAAQSETWPAIKPLLTKGKTLYFSHGFSPVFKDLTHVEPPKDLDVILVAPKGSGRTVRSLFKEGRGINSSYAVWNDVTGKAHEKAQALAVAIGSGYVYQTTFEREVNSDLYGERGCLMGGIHGMFLAQYDVLRENGHSPSEAFNETVEEATQSLYPLIGKYGMDYMYDACSTTARRGALDWYPIFKNALKPVFQDLYESTKNGTETKRSLEFNSQPDYREKLEKELDTIRNMEIWKVGKEVRKLRPENQ" ?
not soluble

What do we get for "MNIENPAPILDQDPYVQAYPETRAFWEAAAQGRFVLPRCRDCGQSHWYPRGLCPLCGSTALEWQDAAGTGTLYSYSVMRAAPQPYAIAYVQLAEGPLVLTNIVDSDLERLRIGQPVRVAFQRTQEGRSAPVFVALAD" ?
not soluble

What do we get for "MGSDKIHHHHHHMKTSLGPIQYCWPKEKVVEFYEAVAQSSVPLVYLGETVCSRRRELKFSDYLALAQMLKAAGKEVVLSTLTLIEAQSEFLELKKQVENGEFTIEANDVGAIYLAKEHGIPFVCGPSINSYNAATLKKFASWGMQRFVMPLELSKAWLTQVLDDLAPRQVEVEVFGHGFMPLAHSARCFTARHKGLTKDKCQTICIENPEGLLVQTQEDQPLLRLNGIQTQSANYMDLCDQQTQMQALGVDYFRISPSSLASIALADKLPAKSASHDRQCNGYWHQLPGLALS" ?
not soluble

What do we get for "DVGSAIDAAHQAFLRYQQCPLKTRSAIISALRETLAPELATLAEESATETGMGNKEDKYLKNKAALENTPGIEDLTTSALTGDGGMVLFEYSPFGVIGAVAPSTNPTETIINNSISMLAAGNSVYFSPHPGAKKVSLKLIARIEEIAYRCSGIRNLVVTVAEPTFEATQQMMSHPLIAVLAITGGPGIVAMGMKSGKKVIGAGAGNPPCIVDETADLVKAAEDIISG" ?
not soluble

What do we get for "GSRTGSESSRPNTALLDPSSPEFSAVVSVGDWLQAIKMDRYKDNFTAAGYTTLEAVVHMSQDDLARIGITAITHQNKILSSVQAMRTQMQQMHG" ?
soluble
